System: HT-29
Assay: Cell survival of human HT29 cells at 150 uM after 2 hrs
Assay type: functional
Details: HT-29, 2 h, read-out: Survival
Entries and their viability at 150 µM values follow.
RECORDED METRIC: viability at 150 µM

                                   compound  assay_target  recorded_value
0  OC1/C(=C/c2cn(Cc3ccccc3Br)c3ccc(Br)cc23)N2CCC1CC2 (stereo not drawn)         HT-29           > 70%
1  COc1ccc(Cn2cc(/C=C3/C(O)C4CCN3CC4)c3cc(Br)ccc32)cc1 (stereo not drawn)         HT-29           > 70%
2  Cc1ccc(Cn2cc(/C=C3/C(O)C4CCN3CC4)c3cc(C)ccc32)cc1 (stereo not drawn)         HT-29           < 70%
